What melting point was measured for each of the following?

Query: Specify measured melting point for CCOC(=O)COc1ccc(S(=O)(=O)c2ccc(C)nc2Nc2c(C)cc(C)cc2C)cc1 .
Result: 116 to 118 °C

Query: Specify measured melting point for COC(=O)c1ccc(-c2nc3c(OC(C)=O)cccc3s2)cc1 .
Result: 144 to 146 °C

Query: Specify measured melting point for C[C@H](N)C(=O)NC(C)(Cc1ccc(F)cc1)c1ccc(F)cc1 (stereo partly specified) .
Result: 134 to 135 °C

Query: Specify measured melting point for CC1CCCN1CCCOc1ccc(-c2ccc(S(=O)Cc3ccccc3)nn2)cc1 (stereo unspecified) .
Result: 145 °C

Query: Specify measured melting point for CC(=O)Nc1c2oc3cc(Cl)ccc3c2nn1C .
Result: 290 to 300 °C

Query: Specify measured melting point for CCC(=O)N[C@@H]1CCc2ccc(OC)cc2[C@H]1O .
Result: 162 to 163 °C

Query: Specify measured melting point for CSCCCC1(C(=S)N[C@@H](Cc2ccc(NC(=O)c3c(Cl)cccc3Cl)cc2)C(=O)O)CCC1 .
Result: 186 to 188 °C

Query: Specify measured melting point for O=C(Nc1nc(-c2ccccc2)cs1)C(=O)Nc1nc(-c2ccccc2)cs1 .
Result: 292 to 293 °C

Query: Specify measured melting point for CCC[C@H]1CC[C@H](c2ccc(CCc3ccc(C#N)cc3)cc2)CC1 .
Result: 36 °C

Query: Specify measured melting point for CCN(CC)N(C(C)=O)c1nc2cc3nc(N)sc3cc2s1 .
Result: 203 to 205 °C

Query: Specify measured melting point for O=S1(=O)NCN(C2CC2)c2c1ccc(Br)c2Cl .
Result: 128 to 131 °C

Query: Specify measured melting point for CCOC(=O)N1C=CN(c2ccccc2)C1C#N (stereo unspecified) .
Result: 109 to 111 °C

Query: Specify measured melting point for O=C(CNC(=O)c1n[nH]cc1NC(=O)c1ccccn1)c1ccccc1 .
Result: 270 to 271 °C

Query: Specify measured melting point for FC(F)c1nc2ccccc2n1-c1nc(NCc2cccnc2)nc(N2CCOCC2)n1 .
Result: 160 to 161 °C

Query: Specify measured melting point for O=C1NCCOC1C(O)c1ccccc1 (stereo unspecified) .
Result: 130 to 140 °C

Query: Specify measured melting point for CCOC(=O)C(NC(C)=O)(C(=O)OCC)[C@@H]1CC(=O)C[C@H]1N=[N+]=[N-] (relative stereo) .
Result: 121 to 122 °C

Query: Specify measured melting point for Nc1ccccc1Oc1ncc(C(F)(F)F)cc1Cl .
Result: 133 to 135 °C

Query: Specify measured melting point for CN(C)S(=O)(=O)c1ccc(Oc2ccc(S(=O)(=O)c3ccccc3)cc2)cc1 .
Result: 99 to 100 °C

Query: Specify measured melting point for CC(C)(C)c1ccc(OCC(N)CO)cc1 (stereo unspecified) .
Result: 102 °C

Query: Specify measured melting point for COC(=O)c1cc(F)c(N2CCC(N)C2)nc1Nc1ccc(F)cc1F (stereo unspecified) .
Result: 139 to 140 °C

Query: Specify measured melting point for CC12C=CC(C)(O1)C(Br)C(=O)C2Br (stereo unspecified) .
Result: 115 to 120 °C

* * *

measured-attribute: melting point

Query: Specify measured melting point for O[C@@H](CNCCOc1ccc2oc(-c3noc(C(F)(F)F)n3)cc2c1)COc1ccccc1F .
Result: 117 to 119 °C

Query: Specify measured melting point for CCOC(=O)C(CC(C)C)(C(=O)OCC)[C@H](NC(C)=O)[PH](=O)O .
Result: 105 to 106 °C

Query: Specify measured melting point for CC(C)N(CCN1C(=O)/C(=N/NC(N)=O)c2cc(Br)ccc21)C(C)C .
Result: 149 to 153 °C

Query: Specify measured melting point for CN1C(C(=O)Nc2ccccn2)=C(OCOC(=O)c2ccccc2)c2ccccc2S1(=O)=O .
Result: 149 to 150 °C

Query: Specify measured melting point for CCOCc1nnc2c(C(F)(F)F)c(Cl)ccn12 .
Result: 104 °C

// provenance: a melting point compilation (Tetko et al.; mined from patent text by program, amines drawn as free bases though some values may be those of a salt)
